FYI, the data here is from the supplement of paper PMC10065799.

tgt: Hck (UniProt P08631)
Sequence (P08631 whole entry, looked up): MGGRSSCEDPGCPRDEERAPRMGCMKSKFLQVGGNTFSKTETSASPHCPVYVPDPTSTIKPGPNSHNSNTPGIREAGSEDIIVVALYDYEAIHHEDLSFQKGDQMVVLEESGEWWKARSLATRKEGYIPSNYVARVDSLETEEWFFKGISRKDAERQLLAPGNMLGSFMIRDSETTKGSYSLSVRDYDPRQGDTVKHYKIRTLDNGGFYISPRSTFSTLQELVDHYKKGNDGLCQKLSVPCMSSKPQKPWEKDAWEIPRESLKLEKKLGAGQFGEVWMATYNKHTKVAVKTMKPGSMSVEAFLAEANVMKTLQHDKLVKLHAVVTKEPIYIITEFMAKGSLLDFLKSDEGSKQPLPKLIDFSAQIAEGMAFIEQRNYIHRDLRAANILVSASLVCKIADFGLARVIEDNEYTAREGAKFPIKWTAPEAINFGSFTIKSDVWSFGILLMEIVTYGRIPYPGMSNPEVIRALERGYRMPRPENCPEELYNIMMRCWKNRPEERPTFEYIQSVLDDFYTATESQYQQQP
assay-remarks: phosphorylation enrichment, bacterial display (enrichment ratio); higher = better substrate or ligand; peptides without Tyr show the background;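 further: 11-residue human phosphosite peptides and single-mutation variants displayed on the E. coli surface, counted by deep sequencing, each peptide's frequency after selection divided by its frequency in the unselected input library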;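 further: frequency after pTyr selection over input frequency; kinase dosed for 20-30% of maximal phosphorylation in three min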
Short version: phosphorylation enrichment at least 0.5 is 1 (yes), less is 0 (no).

- sequence-chain: "TVVVPYEPPEV [TP53_Y220_S215T]"
  cat: "0 (no)"
- sequence-chain: "TEVIWYKGDEE"
  cat: "0 (no)"
- sequence-chain: "RTMPDYTSFNT [EPHB2_Y912_I909M]"
  cat: "1 (yes)"
- sequence-chain: "CPPELYALMSD [ZAP70_Y569]"
  cat: "1 (yes)"
- sequence-chain: "IALNSYHSRNC [IFNGR1_Y397]"
  cat: "0 (no)"
- sequence-chain: "GGYNNYGYGND [HNRNPH3_Y159]"
  cat: "1 (yes)"
